Tested on: MDA-MB-435 melanoma
Experiment: NCI-60 one-dose screen, 48 h (100 = growth as untreated, 0 = no growth, -100 = all killed)
Details: 10 µM unless noted
Compounds without any hit were thinned out: in the full panel of roughly 83,000, 20% have a hit.
quantity: growth (%)
Numbers only; they are read as %.

(Q) Which measured growth value corresponds to `CC1(C)C=CC[C@]2(C)[C@H]3CC[C@@H]4[C@H]5[C@H](C(=O)/C=C/c6cccnc6)CC[C@]5(CO)CC[C@@]4(C)[C@]3(C)CC[C@@H]12` ?
(A) -57.1

(Q) Item `CCN1CCN(C(=O)[C@]23CCC(C)(C)C[C@@H]2C2=CC[C@@H]4[C@@]5(C)C/C(=C/c6ccncc6)C(=O)C(C)(C)[C@@H]5CC[C@@]4(C)[C@]2(C)CC3)CC1` has what recorded growth?
(A) -29.9

(Q) Which growth is listed for CN(C)CCCC1(c2ccc(F)cc2)OCc2cc(-c3ccc(C(F)(F)F)nc3)ccc21 (stereo not given) ?
(A) 67.9

(Q) If you can, please state the reported growth value of `Cc1cc(C)c(NC(=O)c2sc3nc4c(cc3c2N)CCCC4)c(C)c1` .
(A) -13.6

(Q) Which value of growth has been reported for `COc1cccc(-c2nn(-c3ccccc3)cc2-c2ccnc(NCCCNS(=O)(=O)c3ccc(Br)cc3)c2)c1` in the records?
(A) 54.3

* * *

Exercise: for every item that follows, state its recorded growth.
System: BT-549 breast
Test: NCI-60 one-dose screen, 48 h (100 = growth as untreated, 0 = no growth, -100 = all killed)
Details: 10 µM unless noted
The panel holds about 83,000 compounds, 20% with a hit somewhere; the sample as a whole holds those more often.
Only the number, expressed in %, is required.

(Q) # growth lookup, item `COc1ccc(-c2cc(/C=C/C(=O)c3ccc(OC)c(OC)c3)[nH]n2)cc1`
(A) -34.2

(Q) Name the recorded growth for `COc1cccc(-c2nn(-c3ccccc3)cc2-c2ccnc(NCCCNS(=O)(=O)c3ccc(Cl)cc3)c2)c1` .
(A) 58.1

(Q) Fill blank: measured growth of the compound `C=C1CC[C@@H](C(=O)OC)Cc2nc(C)ccc21` is ____.
(A) 122

(Q) I am curious: what growth value has been reported for `Cc1ccc(-c2nn(Cc3cn(-c4cc(C)nc5ccccc45)nn3)c3ncnc(N)c23)cc1` ?
(A) 64.4

(Q) Could you share which growth value was measured for `Brc1ccc2c(c1)c(-c1nc(-c3c[nH]c4ncccc34)cs1)cn2CCCN1CCCCC1` ?
(A) 72.8

(Q) Which growth is reported for this compound? `Nc1c(C(=O)Nc2c(Cl)cccc2Cl)sc2nc3c(cc12)C(=O)CCC3`
(A) 51.5

(Q) Which growth value is on record for `O=c1[nH]c2c3ccncc3cc(-c3cccc(Cl)c3)c2c2cnccc12` ?
(A) 22

(Q) What value of growth has been reported for the following compound? `COc1cc(-c2cc(-c3nc4cc(Cl)c(Cl)cc4[nH]3)[nH]n2)cc(OC)c1OC`
(A) 35.3

(Q) What value of measured growth is listed for Oc1ccc(CCC2CCCC(CCc3ccc(OCCF)cc3)N2)cc1 (configuration not stated) ?
(A) 96.4

(Q) # input compound: `COC(=O)[C@]12CC[C@@H](C)[C@H](C)[C@@H]1C1=CC(=O)[C@@H]3[C@@]4(C)C[C@@H](OC(C)=O)[C@H](OC(C)=O)[C@@](C)(COC(C)=O)[C@@H]4C(=O)C[C@@]3(C)[C@]1(C)CC2` ; wanted: its growth
(A) 17.8

(Q) Requested read-out: growth. Entry: `Cc1nc([P+](c2ccccc2)(c2ccccc2)c2ccccc2)c(Sc2sc(-c3ccccc3)nc2[P+](c2ccccc2)(c2ccccc2)c2ccccc2)o1`
(A) -0.458

(Q) Quick one: growth for `N#C/C(=C\c1ccc(-c2cccc(C(F)(F)F)c2)o1)c1nc(-c2ccco2)cs1` ?
(A) 97
